Hey, just so you know, these numbers are from ChEMBL document CHEMBL4665650.

Listed here: items and their measured Activity.
# test_target: Potassium channel subfamily K member 2 (Homo sapiens) (UniProt O95069)
# Sequence (O95069 whole entry): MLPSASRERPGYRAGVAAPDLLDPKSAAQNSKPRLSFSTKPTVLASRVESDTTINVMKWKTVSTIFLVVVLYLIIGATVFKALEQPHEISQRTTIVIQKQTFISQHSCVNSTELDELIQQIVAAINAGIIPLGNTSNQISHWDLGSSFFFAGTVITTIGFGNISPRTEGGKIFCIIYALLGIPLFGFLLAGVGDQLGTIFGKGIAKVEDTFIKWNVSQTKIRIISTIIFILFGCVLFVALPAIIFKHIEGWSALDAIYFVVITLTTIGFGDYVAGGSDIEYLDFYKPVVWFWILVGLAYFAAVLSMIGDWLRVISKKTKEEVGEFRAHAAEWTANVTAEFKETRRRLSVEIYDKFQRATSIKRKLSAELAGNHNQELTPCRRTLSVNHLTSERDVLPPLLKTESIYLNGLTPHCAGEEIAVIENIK
# assay_protocol: Activation of human TREK1 at 30 uM by thallium flux mobilization assay relative to control

{"columns": ["compound_structure", "Activity (%)"],
 "data": [
  ["O=C(O)Cc1cccc(NC(=O)c2cccc(C(F)(F)F)c2)c1", -1],
  ["O=C(O)c1cccc(NC(=O)c2ccc(C(F)(F)F)cc2)c1", -11],
  ["Cc1sc(NC(=O)c2ccc(SC(F)(F)F)cc2)c(C(=O)O)c1C", 31],
  ["O=C(O)Cc1ccccc1NC(=O)c1ccccc1C(F)(F)F", 4],
  ["O=C(O)Cc1cccc(NC(=O)c2ccc(C(F)(F)F)cc2)c1", 0],
  ["O=C(Nc1nccnc1C(=O)O)c1ccc(SC(F)(F)F)cc1", -6],
  ["O=C(Nc1ccccc1C(=O)O)c1ccc(C(F)(F)F)cc1", 28],
  ["O=C(O)Cc1ccccc1NC(=O)c1cccc(C(F)(F)F)c1", 5],
  ["O=C(O)c1cccc(NC(=O)c2ccccc2C(F)(F)F)c1", -14],
  ["O=C(O)Cc1ccccc1NC(=O)c1ccc(C(F)(F)F)cc1", -6],
  ["O=C(Nc1ncccc1C(=O)O)c1ccc(SC(F)(F)F)cc1", -4],
  ["O=C(Nc1cnncc1C(=O)O)c1ccc(SC(F)(F)F)cc1", 1],
  ["O=C(Nc1ccoc1C(=O)O)c1ccc(SC(F)(F)F)cc1", 8],
  ["O=C(O)Cc1cccc(NC(=O)c2ccccc2C(F)(F)F)c1", 2],
  ["O=C(Nc1ccccc1C(=O)O)c1cccc(SC(F)(F)F)c1", 40]
]}

====

# test_target: Potassium channel subfamily K member 10 (Homo sapiens, UniProt P57789)
# Sequence (P57789 whole entry): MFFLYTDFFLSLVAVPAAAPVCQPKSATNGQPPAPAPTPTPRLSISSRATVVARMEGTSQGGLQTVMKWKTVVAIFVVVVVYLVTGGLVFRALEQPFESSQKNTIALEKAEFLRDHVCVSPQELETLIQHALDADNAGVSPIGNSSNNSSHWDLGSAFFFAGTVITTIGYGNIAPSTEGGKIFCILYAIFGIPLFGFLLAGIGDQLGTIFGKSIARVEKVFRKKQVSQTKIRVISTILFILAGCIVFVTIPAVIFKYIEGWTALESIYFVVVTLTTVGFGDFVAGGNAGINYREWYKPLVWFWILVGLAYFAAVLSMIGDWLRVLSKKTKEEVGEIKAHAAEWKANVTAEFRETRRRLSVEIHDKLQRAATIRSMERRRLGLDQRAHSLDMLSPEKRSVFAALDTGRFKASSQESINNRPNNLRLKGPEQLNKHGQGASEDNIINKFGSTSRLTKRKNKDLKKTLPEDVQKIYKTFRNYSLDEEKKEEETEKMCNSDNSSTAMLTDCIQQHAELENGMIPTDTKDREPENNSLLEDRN
# assay_protocol: Activation of human TREK2 by thallium flux mobilization assay
pEC50: −log10 of the molar value.
The entries below come with measured pEC50 values attached.

{"columns": ["compound_structure", "readout_qualifier", "pEC50"],
 "data": [
  ["O=C(Nc1ccc(Cl)cc1C(=O)O)c1ccc(SC(F)(F)F)cc1", "=", 5.17],
  ["O=C(Nc1ccc(OC(F)(F)F)cc1C(=O)O)c1ccc(SC(F)(F)F)cc1", "=", 5.25],
  ["O=C(Nc1sc(-c2ccccc2)cc1C(=O)O)c1ccc(SC(F)(F)F)cc1", "<", 4.52],
  ["O=C(Nc1ccc(F)cc1C(=O)O)c1ccc(SC(F)(F)F)cc1", "<", 4.52]
]}
